- assay_system: T1, Human B7-H4 with HisFlag tag (huB7-H4-his) (human, UniProt Q7Z7D3 25-258)
- T1 construct: also called HuB7-H4 His protein; huB7-H4-HF
- T1 sequence: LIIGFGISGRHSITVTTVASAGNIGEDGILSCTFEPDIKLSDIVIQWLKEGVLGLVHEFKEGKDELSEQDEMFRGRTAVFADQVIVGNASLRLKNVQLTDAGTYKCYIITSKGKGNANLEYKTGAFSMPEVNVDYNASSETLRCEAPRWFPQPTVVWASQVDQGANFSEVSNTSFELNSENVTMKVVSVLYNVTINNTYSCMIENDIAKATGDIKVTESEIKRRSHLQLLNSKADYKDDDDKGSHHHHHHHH
- experiment_description: SPR Biacore T200, antibody coupled to CM5 chip, hu-B7-H4-his in flow, 1:1 model
pKd: −log10 of the molar value.
measured_quantity: pKd

Asked: Field request: pKd | item: humanized anti-B7-H4 antibody hu2G6 (antibody, human IgG1, kappa, V domains shown, human IgG1 / kappa; also called humanized antibody 2G6) VH: EVQLLESGGGLVQPGGSLRLSCAASGFTFSRYGMSWVRQAPGKGLEWVSGINGGGSYTYYLDTVKGRFTISRDNARNTLYLQMSSLRAEDTAVYYCVSQGSNYYFDYWGQGTLVTVSS VL: DIRMTQSPSSLSASVGDRVTITCHASQGISSNIGWLQQKPGKAPKALIYHGTNLEDGVPSRFSGSGSGADYTLTISSLQPEDFATYYCVQYAQFPYTFGGGTKVEIKR
Given back: ≥ 10.87
